Target: human ICMT (Homo sapiens (Human), UniProt O60725)
Sequence (O60725 whole entry): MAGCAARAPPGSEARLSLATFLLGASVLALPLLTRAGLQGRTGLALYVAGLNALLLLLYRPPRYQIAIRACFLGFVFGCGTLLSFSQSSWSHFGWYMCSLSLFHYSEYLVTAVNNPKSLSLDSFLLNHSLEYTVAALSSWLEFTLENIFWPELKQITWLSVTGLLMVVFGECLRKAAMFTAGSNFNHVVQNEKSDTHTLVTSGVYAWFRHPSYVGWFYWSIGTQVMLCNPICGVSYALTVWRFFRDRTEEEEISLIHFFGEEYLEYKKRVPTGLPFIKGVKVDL
Assay: ICMT biochemical assay (Methyltransferase-Glo)
Conditions: ICMT membrane extract from Sf-9 cells; 30 min preincubation, 90 min reaction
Procedure: Recombinant human ICMT was prepared by infection of Sf9 cells with a recombinant baculovirus containing the entire open reading frame of the human ICMT cDNA. Cells producing ICMT were harvested 66 hours post-infection. […] An ICMT enzymatic assay was developed using Promega's Methyltransferase-GloTMreagents. […] The methyltransferase activity is measured based on the amount of SAH produced from the reaction through the use of coupling enzymes that convert the SAH to ATP. […]
measured-parameter: IC50 (nM)
One number for each entry, in nM.

Count: 7. Required value per item: IC50.
1. Cc1nccn1-c1cccc(O[C@@H](C)COc2ccc(C#N)cc2F)c1 [Compound 35]
2. N#Cc1cnc(OCCOc2ccnc(-n3ccnc3C3CC3)c2)c(F)c1 [Compound 90]
3. N#Cc1ccc(OCCOc2cccc(-n3ccnc3C3CC3)c2)c(F)c1 [Compound 17]
4. COc1cc(C#N)ccc1O[C@H](C)COc1cccc(-c2ccnn2C)c1 [Compound 48]
5. Cc1nccn1-c1cccc(OC(C)COc2ccc(C#N)cc2F)c1 (stereo not drawn) [Compound 23]
6. Cc1nccn1-c1cc(OCCOc2ncc(C#N)cc2F)ccc1F [Compound 87]
7. Cn1nccc1-c1cccc(OCCOc2ccc(C#N)cc2Cl)c1 [Compound 7]

Response:
3.6
37
16
0.64
61
33
3

Count: 2. Required value per item: IC50.
1. Fc1cc(Cl)ccc1OCCOc1cccc(-n2ccnc2C2CC2)c1 [Compound 50]
2. N#Cc1ccc(OCCOc2cccc(-c3ccnn3C3CC3)c2)c(F)c1 [Compound 116]

Response:
1: 12; 2: 9.5

----------
Target: human ICMT (Homo sapiens (Human), UniProt O60725)
Assay: ICMT biochemical assay (Methyltransferase-Glo)
Settings: ICMT membrane extract from Sf-9 cells; 30 min preincubation, 90 min reaction
Kindly supply the reported log10(IC50) values for the records listed here.
Give log10 of IC50, with IC50 taken in nM.

{"molecule": "Cc1nccn1-c1cccc(OC[C@H](C)Oc2ccc(C#N)cc2Cl)c1", "log10(IC50)": -0.82}
{"molecule": "Cc1nccn1-c1cc(OCCOc2ccc(C#N)cc2)ccc1F", "log10(IC50)": 1.71}
{"molecule": "Cc1nccn1-c1cccc(OCC(C)Oc2ccc(C#N)cc2F)c1 (stereo not drawn)", "log10(IC50)": 1.36}
{"molecule": "COc1cc(C#N)ccc1OC(C)COc1cccc(-n2ccnc2C)c1 (stereo not drawn)", "log10(IC50)": -1.10}
{"molecule": "N#Cc1ccc(OCCOc2cccc(-n3ccnc3C3CC3)c2)c(N)c1", "log10(IC50)": 0.56}
{"molecule": "COc1cc(C#N)ccc1OC(C)COc1cccc(-c2ccnn2C)c1 (stereo not drawn)", "log10(IC50)": 0.08}
{"molecule": "COc1cc(C#N)ccc1O[C@@H](C)COc1cccc(-n2ccnc2C)c1", "log10(IC50)": 0.65}
{"molecule": "CC(COc1cccc(-n2ccnc2C2CC2)c1)Oc1ccc(C#N)cc1F (stereo not drawn)", "log10(IC50)": 0.20}

Count: 8. Required value per item: log10(IC50).
1. Cn1nccc1-c1cc(F)cc(OCCOc2ccc(C#N)cc2F)c1
2. Cn1nccc1-c1cccc(OCCOc2ccc(C#N)cc2)c1
3. N#Cc1ccc(OCCOc2cccc(-n3cnnc3)c2)cc1
4. Cn1nccc1-c1cccc(OCCOc2ccc(C#N)cc2F)c1
5. N#Cc1ccc(OCCOc2cccc(-c3ccnn3C3CC3)c2)cc1
6. N#Cc1ccc(OCCOc2cccc(-n3cnnc3)c2)c(F)c1
7. Cc1nccn1-c1cccc(OC(C)COc2ccc(C#N)cc2Cl)c1 (stereo not drawn)
8. C[C@@H](COc1cccc(-n2ccnc2C2CC2)c1)Oc1ccc(C#N)cc1F

Response:
0.78
0.95
2.47
1.18
1.74
2.49
0.48
1.08
